For each record, write down the corresponding CC50.
assay: Cytotoxicity against human 16HBE14o- cells assessed as inhibition of cell growth by MTT assay; assay type: toxicity, cell-based
One number for each entry, in µM.

Known results for compounds:
Qu. Can you share its CC50? I mean this compound: C#Cc1cccc(Nc2ncnc3cc(OCCOC)c(OCCOC)cc23)c1 [ERLOTINIB]
Ans. 1.32

Qu. Looking for the measured CC50 of CN1CCN(CCC(=O)N2CCOc3c2ccc2ncnc(Nc4cccc(Br)c4)c32)CC1 , can you help?
Ans. 1.35

Qu. Reported CC50, compound CCC(=O)N1CCOc2c1ccc1ncnc(Nc3cccc(Br)c3)c21 : ____
Ans. 1.25

Qu. So what's the measured CC50 for this one? CN1CCN(CCC(=O)N2CCOc3c2ccc2ncnc(Nc4ccc(F)c(Cl)c4)c32)CC1
Ans. 1.24

Need CC50 for each of these compounds.
1. Fc1ccc(Nc2ncnc3ccc4c(c23)OCCN4)cc1Cl
2. CC(=O)N1CCOc2c1ccc1ncnc(Nc3cccc(Br)c3)c21

Ans.
1. 0.13
2. 1.4

---

system: NCI-H1563; assay: Antiproliferative activity against human NCI-H1563 cells assessed as inhibition of cell growth; format: functional, cell-based
endpoint: IC50

Example cases with answers are listed next.
Qu. I'd like to know its IC50. The compound in question is CCC(=O)N1CCOc2c1ccc1ncnc(Nc3cccc(C(F)(F)F)c3)c21
Ans. > 40 µM

Qu. Find the recorded IC50 belonging to CC(=O)N1CCOc2c1ccc1ncnc(Nc3cccc(Br)c3)c21 and report it.
Ans. > 40 µM

Qu. # lookup: IC50 of C#Cc1cccc(Nc2ncnc3cc(OCCOC)c(OCCOC)cc23)c1
Ans. 8.17 µM

Qu. Reported IC50 for CN1CCN(CCC(=O)N2CCOc3c2ccc2ncnc(Nc4cccc(Br)c4)c32)CC1 : what is it?
Ans. 12.5 µM

Batch request: IC50 per item, same order as input.
1. CN1CCN(CCC(=O)N2CCOc3c2ccc2ncnc(Nc4cccc(C(F)(F)F)c4)c32)CC1
2. CCC(=O)N1CCOc2c1ccc1ncnc(Nc3ccc(F)c(Cl)c3)c21
3. Fc1ccc(Nc2ncnc3ccc4c(c23)OCCN4)cc1Cl
4. Brc1cccc(Nc2ncnc3ccc4c(c23)OCCN4)c1

Ans.
21.2 µM
> 40 µM
< 1.25 µM
< 1.25 µM

---

What IC50 was measured for each of the following?
test system: NCI-H1563; experiment: Antiproliferative activity against human NCI-H1563 cells assessed as inhibition of cell growth; format: functional, cell-based
Answers are plain numbers, in µM.

Qu. Record request: IC50 value, item CN1CCN(CCC(=O)N2CCOc3c2ccc2ncnc(Nc4ccc(F)c(Cl)c4)c32)CC1
Ans. 10.6

Next:
Qu. Consider the compound shown here: CCC(=O)N1CCOc2c1ccc1ncnc(Nc3cccc(Br)c3)c21 What is its recorded IC50?
Ans. 24.8

---

Observed IC50, system Epidermal growth factor receptor (Homo sapiens).
Numbers only, in nM.

Qu. Please give the measured IC50 for this compound: CN1CCN(CCC(=O)N2CCOc3c2ccc2ncnc(Nc4cccc(C(F)(F)F)c4)c32)CC1
Ans. 148

Please state IC50 for every compound in the list that follows.
1. CC(=O)N1CCOc2c1ccc1ncnc(Nc3cccc(Br)c3)c21
2. CN1CCN(CCC(=O)N2CCOc3c2ccc2ncnc(Nc4ccc(F)c(Cl)c4)c32)CC1
3. Fc1ccc(Nc2ncnc3ccc4c(c23)OCCN4)cc1Cl

Ans.
45.6
25.7
87.3

Fill in IC50 for each of the 2 compounds listed.
1. CCC(=O)N1CCOc2c1ccc1ncnc(Nc3cccc(C(F)(F)F)c3)c21
2. CC(=O)N1CCOc2c1ccc1ncnc(Nc3ccc(F)c(Cl)c3)c21

Ans.
[838, 47.2]

---

test system: NCI-H1563; assay: Antiproliferative activity against human NCI-H1563 cells assessed as inhibition of cell growth; assay type: functional, cell-based
pIC50: −log10 of the molar value.
endpoint: pIC50

// solved cases for pIC50 follow
Qu. Form field: reported pIC50 of CC(=O)N1CCOc2c1ccc1ncnc(Nc3ccc(F)c(Cl)c3)c21
Ans. < 4.40

Qu. What pIC50 value was documented for this compound, CC(=O)N1CCOc2c1ccc1ncnc(Nc3cccc(C(F)(F)F)c3)c21 ?
Ans. < 4.40

# ---- query compound ----
Qu. Find the recorded pIC50 belonging to FC(F)(F)c1cccc(Nc2ncnc3ccc4c(c23)OCCN4)c1 and report it.
Ans. < 4.40
